pIC50: −log10 of the molar value.
Quick record: pIC50, SYK kinase (Homo sapiens, UniProt P43405).

Use the examples below as a reference point.
CN1CCN(c2ccc(Nc3nc4ccc(S(C)(=O)=O)cc4c4cn[nH]c34)cn2)CC1    6.00 to 7.00
CO[C@H]1CCCC[C@H]1n1cc(Nc2nc3ccc(S(C)(=O)=O)cc3c3c[nH]nc23)cn1    6.00 to 7.00
COc1cccc2nc(Nc3cnn(C4CCN(C)CC4)c3)c3[nH]ncc3c12    7.00 to 8.00
COc1ccc2nc(Nc3cnn(CC(C)(C)O)c3)c3[nH]ncc3c2c1    6.00 to 7.00

Inquiry: Identify pIC50 associated with the compound `Fc1cccc2nc(Nc3ccc(N4CCN(C5CC5)CC4)cc3)c3[nH]ncc3c12`
Reply text: 6.00 to 7.00

---

molecular target: SYK kinase (Homo sapiens, UniProt P43405)
pIC50: −log10 of the molar value.
PROPERTY: pIC50

Required: pIC50, one value per molecule below.
1. CS(=O)(=O)c1ccc2c(c1)nc(Nc1ccc(N3CCN(CCO)CC3)cc1)c1[nH]ncc12 [Example 303]
2. COc1cccc2nc(Nc3cnn(C(C)(C)C#N)c3)c3[nH]ncc3c12 [Example 184]
3. COc1cccc2nc(Nc3cnn(CC(C)C)c3)c3[nH]ncc3c12 [Example 198]
4. CS(=O)(=O)c1ccc2nc(Nc3cnn(CC(F)(F)F)c3)c3[nH]ncc3c2c1 [Example 261]
5. C=C(C)Cn1cc(Nc2nc3cccc(OC)c3c3cn[nH]c23)cn1 [Example 258]
6. COc1cccc2nc(Nc3cnn(C4CCNCC4)c3)c3[nH]ncc3c12 [Example 236]

Reply text:
["7.00 to 8.00", "7.00 to 8.00", "6.00 to 7.00", "7.00 to 8.00", "6.00 to 7.00", "7.00 to 8.00"]

Fill in pIC50 for each of the 8 molecules listed.
1. COc1ccc2nc(Nc3cnn(CC(C)C)c3)c3[nH]ncc3c2c1 [Example 285]
2. COc1ccc2nc(Nc3cnn(C(C)(C)C)c3)c3[nH]ncc3c2c1 [Example 286]
3. COc1cccc2nc(Nc3cnn(C4CC4)c3)c3[nH]ncc3c12 [Example 201]
4. CS(=O)(=O)c1ccc2nc(Nc3ccc4c(c3)NC(=O)CCC4)c3[nH]ncc3c2c1 [Example 77]
5. COc1cccc2c1nc(Nc1cnn(C3CCOCC3)c1)c1[nH]ncc12 [Example 307]
6. CC(C(=O)O)n1cc(Nc2nc3ccc(S(C)(=O)=O)cc3c3c[nH]nc23)cn1 (stereo not shown) [Example 334]
7. COCC(C)(C)n1cc(Nc2nc3ccc(S(C)(=O)=O)cc3c3cn[nH]c23)cn1 [Example 208]
8. COc1nn(C(C)C)cc1Nc1nc2cccc(OC)c2c2cn[nH]c12 [Example 224]

Reply text:
6.00 to 7.00
6.00 to 7.00
6.00 to 7.00
> 8.00
6.00 to 7.00
7.00 to 8.00
7.00 to 8.00
6.00 to 7.00

I'm hoping you can list pIC50 for every molecule here, please.
1. CC(C)n1ncc(Nc2nc3ccc(S(C)(=O)=O)cc3c3cn[nH]c23)c1Cl [Example 233]
2. COc1cc(OC)c2nc(Nc3cnn(C4CCOCC4)c3)c3[nH]ncc3c2c1 [Example 289]

Reply text:
6.00 to 7.00
6.00 to 7.00

---

Kindly supply the reported pIC50 values for the records listed here.
molecular target: LRRK2 (Homo sapiens); assay: LRRK2-LRRK2 G2019S-Assay (LanthaScreen Eu Kinase Binding Assay); details: 5 nM LRRK2, 10 nM tracer 236, 2 nM EU-Anti-GST antibody, 1 h at RT; read-out: LRRK2 Activities: IC50
pIC50: −log10 of the molar value.

# count of solved cases: 3
COc1ccc(Nc2nc3cccc(S(C)(=O)=O)c3c3cn[nH]c23)cc1OC    6.00 to 7.00
COc1cccc2nc(Nc3cnn(C4CCNCC4)c3Cl)c3[nH]ncc3c12    > 8.00
COc1ccc2nc(Nc3cnn(C(C)(C)C)c3)c3[nH]ncc3c2c1    > 8.00

Please state pIC50 for every compound in the list that follows.
1. Fc1cc(Nc2nc3cccc(F)c3c3cn[nH]c23)ccc1N1CCOCC1
2. COc1ccc2nc(Nc3ccc(N4CCN(C(C)=O)CC4)nc3)c3n[nH]cc3c2c1
3. CS(=O)(=O)c1ccc2c(c1)nc(Nc1cnn(C3CCOCC3)c1)c1[nH]ncc12 [Example 160]
4. CC(C)(C)n1cc(Nc2nc3cc(S(C)(=O)=O)ccc3c3cn[nH]c23)cn1
5. CCc1cccc(Nc2nc3ccc(S(C)(=O)=O)cc3c3c[nH]nc23)c1
6. COCCn1ncc(Nc2nc3cccc(OC)c3c3cn[nH]c23)c1Br
7. COc1ccc2nc(Nc3ccc(N4CCC(N5CCN(C)CC5)CC4)cc3)c3n[nH]cc3c2c1

Reply text:
1: 6.00 to 7.00; 2: 6.00 to 7.00; 3: > 8.00; 4: 7.00 to 8.00; 5: 7.00 to 8.00; 6: 7.00 to 8.00; 7: 7.00 to 8.00

Please state pIC50 for every compound in the list that follows.
1. COc1ccc(Nc2nc3ccc(S(C)(=O)=O)cc3c3cn[nH]c23)cc1OC
2. COc1cccc2nc(Nc3cccc(CN(C)C)c3)c3[nH]ncc3c12
3. COCCCn1cc(Nc2nc3cccc(OC)c3c3cn[nH]c23)cn1
4. CS(=O)(=O)c1cccc2nc(Nc3cnn(C4CCOCC4)c3)c3[nH]ncc3c12
5. CN1CCN(C2CCN(c3ccc(Nc4nc5cccc(F)c5c5cn[nH]c45)cc3)CC2)CC1
6. COc1ccc2nc(Nc3cnn(C4CCNC4)c3)c3n[nH]cc3c2c1 (centres unmarked)
7. COc1cccc2nc(Nc3ccc(N4CCOCC4)nc3)c3[nH]ncc3c12

Reply text:
1: 7.00 to 8.00; 2: 6.00 to 7.00; 3: > 8.00; 4: 7.00 to 8.00; 5: 7.00 to 8.00; 6: 7.00 to 8.00; 7: 7.00 to 8.00

Give pIC50 for each listed item.
1. COCCCn1cc(Nc2nc3c(OC)cccc3c3cn[nH]c23)cn1
2. CS(=O)(=O)c1ccc2nc(Nc3ccc(N4CCOCC4)cc3)c3[nH]ncc3c2c1

Reply text:
["6.00 to 7.00", "7.00 to 8.00"]

---

biological target: LRRK2 (Homo sapiens, UniProt Q5S007); assay: LRRK2-LRRK2 G2019S-Assay (LanthaScreen Eu Kinase Binding Assay); details: 5 nM LRRK2, 10 nM tracer 236, 2 nM EU-Anti-GST antibody, 1 h at RT; read-out: LRRK2 Activities: IC50
Sequence (Q5S007 970-2527 limits assumed): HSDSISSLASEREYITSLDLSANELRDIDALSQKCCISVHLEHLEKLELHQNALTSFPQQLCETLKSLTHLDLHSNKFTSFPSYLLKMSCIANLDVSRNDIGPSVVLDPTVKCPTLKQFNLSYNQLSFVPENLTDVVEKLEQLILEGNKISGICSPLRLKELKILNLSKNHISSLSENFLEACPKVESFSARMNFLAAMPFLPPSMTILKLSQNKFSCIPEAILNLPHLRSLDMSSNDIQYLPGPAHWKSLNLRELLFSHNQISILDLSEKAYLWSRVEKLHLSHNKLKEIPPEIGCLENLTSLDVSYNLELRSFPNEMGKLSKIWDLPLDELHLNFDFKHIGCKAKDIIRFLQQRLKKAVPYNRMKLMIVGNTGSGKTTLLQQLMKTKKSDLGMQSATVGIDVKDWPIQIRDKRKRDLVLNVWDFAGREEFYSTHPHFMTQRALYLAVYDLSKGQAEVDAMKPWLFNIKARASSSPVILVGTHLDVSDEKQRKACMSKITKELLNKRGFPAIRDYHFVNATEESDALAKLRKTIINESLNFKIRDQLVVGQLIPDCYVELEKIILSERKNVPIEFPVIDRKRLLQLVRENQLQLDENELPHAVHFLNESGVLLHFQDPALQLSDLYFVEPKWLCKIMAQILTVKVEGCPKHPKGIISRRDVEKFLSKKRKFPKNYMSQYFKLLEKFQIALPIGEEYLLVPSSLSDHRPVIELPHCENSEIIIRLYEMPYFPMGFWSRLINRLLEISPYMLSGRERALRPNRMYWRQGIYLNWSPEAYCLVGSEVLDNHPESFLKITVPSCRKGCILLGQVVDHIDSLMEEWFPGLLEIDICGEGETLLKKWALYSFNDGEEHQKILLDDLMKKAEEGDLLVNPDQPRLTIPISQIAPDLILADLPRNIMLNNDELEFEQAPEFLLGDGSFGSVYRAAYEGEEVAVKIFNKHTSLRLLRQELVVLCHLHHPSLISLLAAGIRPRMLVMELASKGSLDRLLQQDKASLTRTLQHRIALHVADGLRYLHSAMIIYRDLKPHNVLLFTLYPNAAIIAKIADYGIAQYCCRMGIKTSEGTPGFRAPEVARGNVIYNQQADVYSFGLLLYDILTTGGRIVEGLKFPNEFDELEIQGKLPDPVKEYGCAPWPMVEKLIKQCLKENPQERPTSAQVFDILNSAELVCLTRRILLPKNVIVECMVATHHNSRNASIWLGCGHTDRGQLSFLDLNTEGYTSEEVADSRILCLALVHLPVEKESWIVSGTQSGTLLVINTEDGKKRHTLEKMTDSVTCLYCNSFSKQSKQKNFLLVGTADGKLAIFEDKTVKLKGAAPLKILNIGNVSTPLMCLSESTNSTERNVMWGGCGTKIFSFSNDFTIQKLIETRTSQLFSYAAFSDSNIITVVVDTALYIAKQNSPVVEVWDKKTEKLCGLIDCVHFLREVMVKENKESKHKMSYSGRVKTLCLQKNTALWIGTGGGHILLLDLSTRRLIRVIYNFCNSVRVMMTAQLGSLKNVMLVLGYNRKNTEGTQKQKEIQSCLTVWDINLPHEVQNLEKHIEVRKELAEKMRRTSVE
Give IC50 for every item shown.

Known results for compounds:
COc1ccc2nc(Nc3cnn(CC(C)C)c3)c3[nH]ncc3c2c1 [Example 285]    10 to 100 nM
CC(C)n1cc(Nc2nc3ccc(S(C)(=O)=O)cc3c3cn[nH]c23)c(C#N)n1 [Example 246]    10 to 100 nM
CN1CCN(C2CCN(c3ccc(Nc4nc5ccc(S(C)(=O)=O)cc5c5cn[nH]c45)cc3)CC2)CC1 [Example 67]    10 to 100 nM
CS(=O)(=O)c1ccc2nc(Nc3ccc(N4CCC(O)CC4)cc3)c3[nH]ncc3c2c1 [Example 316]    10 to 100 nM
CS(=O)(=O)c1cccc2nc(Nc3ccc4c(c3)NC(=O)CCC4)c3[nH]ncc3c12 [Example 98]    10 to 100 nM
CS(=O)(=O)c1ccc2c(c1)nc(Nc1ccc(N3CCOCC3)cc1)c1[nH]ncc12 [Example 101]    10 to 100 nM
COc1c(Nc2nc3ccc(S(C)(=O)=O)cc3c3cn[nH]c23)cnn1C(C)C [Example 227]    < 10 nM
COCCn1cc(Nc2nc3ccc(S(C)(=O)=O)cc3c3cn[nH]c23)c(C(F)(F)F)n1 [Example 271]    10 to 100 nM

Please give IC50, item by item, for the list that follows.
1. COc1cccc2nc(Nc3ccc(N4CCN(C)CC4)nc3)c3[nH]ncc3c12 [Example 79]
2. CS(=O)(=O)c1ccc2nc(Nc3cnn(C4CCOCC4)c3)c3[nH]ncc3c2c1 [Example 143]
3. CS(=O)(=O)c1ccc2nc(Nc3ccc(N4CCN(CCO)CC4)cc3)c3[nH]ncc3c2c1 [Example 309]
4. CC(C)n1ncc(Nc2nc3ccc(S(C)(=O)=O)cc3c3cn[nH]c23)c1C#N [Example 247]
5. COc1ccc2nc(Nc3cnn(C)c3C)c3n[nH]cc3c2c1 [Example 104]
6. CS(=O)(=O)c1ccc2c(c1)nc(Nc1cnn(C3CC3)c1)c1[nH]ncc12 [Example 197]

Reply text:
10 to 100 nM
< 10 nM
< 10 nM
< 10 nM
100 to 1000 nM
10 to 100 nM

# batch: return IC50 for each of the 7 compounds below
1. COc1cccc2nc(Nc3cnn(CC(C)(C)O)c3)c3[nH]ncc3c12 [Example 256]
2. CS(=O)(=O)c1ccc2c(c1)nc(Nc1ccc(N3CCN(CCO)CC3)cc1)c1[nH]ncc12 [Example 303]
3. COc1cccc2nc(Nc3ccc(N4CCOCC4)c(C#N)c3)c3[nH]ncc3c12 [Example 71]
4. CC(C)(C#N)n1cc(Nc2nc3ccc(S(C)(=O)=O)cc3c3cn[nH]c23)cn1 [Example 172]
5. COc1cccc2nc(Nc3ccc(C(=O)N4CCN(C)CC4)cc3)c3[nH]ncc3c12 [Example 69]
6. CS(=O)(=O)c1ccc2nc(Nc3ccc4c(c3)NC(=O)CO4)c3n[nH]cc3c2c1 [Example 343]
7. COCCn1cc(Nc2nc3cccc(OC)c3c3c[nH]nc23)cn1 [Example 156]

Reply text:
["< 10 nM", "100 to 1000 nM", "10 to 100 nM", "10 to 100 nM", "10 to 100 nM", "10 to 100 nM", "< 10 nM"]

# return IC50 for each item in the list
1. CO[C@H]1CCCC[C@H]1n1cc(Nc2nc3ccc(S(C)(=O)=O)cc3c3c[nH]nc23)cn1 [Example 353]
2. CS(=O)(=O)c1ccc2c(c1)nc(Nc1cnn(C3CCOCC3)c1)c1[nH]ncc12 [Example 120]

Reply text:
1. < 10 nM
2. < 10 nM

Inquiry: Supply IC50 value. Item: CSc1ccc2nc(Nc3ccc4c(c3)NC(=O)CC4)c3[nH]ncc3c2c1 [Example 47]
Reply text: < 10 nM
